# target of assay: GSTO1 (Homo sapiens, UniProt P78417)
# Sequence (P78417 whole entry): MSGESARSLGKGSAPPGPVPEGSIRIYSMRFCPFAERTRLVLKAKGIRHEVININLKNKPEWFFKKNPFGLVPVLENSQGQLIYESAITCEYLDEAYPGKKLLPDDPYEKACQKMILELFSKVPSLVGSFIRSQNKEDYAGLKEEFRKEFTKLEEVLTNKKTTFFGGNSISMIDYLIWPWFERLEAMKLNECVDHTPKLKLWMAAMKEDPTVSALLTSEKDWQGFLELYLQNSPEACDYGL
# procedure summary: GSTO1 substrate assay (reduction of 4-NPG)
# conditions used: 10 µM
Field: class. Source value: GSTO substrate assay % Inhibition at 10 µM. Ranges: low = under 40%, middle = from 40% up to 80%, high = 80% and over

Solved entries:
1. O=C(CCl)NCCN1C(=O)SC(=Cc2ccccc2F)C1=O : low
2. Cc1c(C#N)c(NC(=O)CCl)n(-c2ccc(F)cc2)c1C : middle

Band for `O=C(CCl)Nc1nc(-c2c[nH]c3ccccc23)cs1` ?
low

Could you place `O=C(CCl)N1CCN(c2ccccc2F)CC1` in its proper category? Many thanks.
middle

Which category fits this record: CCC1(c2ccccc2)NC(=O)N(NC(=O)CCl)C1=O (centres unmarked)
middle

For this compound, which bin applies? `O=C(CCl)Nc1cc(S(=O)(=O)N(C(=O)CCl)c2cccc(Cl)c2)ccc1Cl`
high

# classify by GSTO substrate assay % Inhibition at 10 µM band: `COc1cc(OC)c(OC)cc1CNC(=O)CCl`
low

Kindly state the category for this compound: `Cc1cc(NC(=O)CCl)ccc1N1CCCC1`
high

Values from paper PMC5059489
